Listing: GTPγS (% of CPA) of selected molecules
Test system: Adenosine A1 receptor
assay.summary: A1-agonist stimulated [35S]GTPγS binding to G proteins
Assay type: biochemical
measurement.parameters: Table 5

Please review the following examples before continuing.
| molecule | GTPγS (% of CPA) |
| --- | --- |
| O[C@@H]1[C@H](O)[C@@H](CSc2c(Cl)cccc2Cl)O[C@H]1n1cnc2c(N[C@@H]3CCOC3)ncnc21 [Compound 19 of Example 4] | 89 % of CPA |
| CNC(=S)OC[C@H]1O[C@@H](n2cnc3c(N[C@@H]4CCOC4)nc(Cl)nc32)[C@H](O)[C@@H]1O [Compound 81 of Example 2] | 84 % of CPA |
| O=C(NC1CCCC1)OC[C@H]1O[C@@H](n2cnc3c(N[C@@H]4CCOC4)nc(Cl)nc32)[C@H](O)[C@@H]1O [Compound 69 of Example 2] | 69 % of CPA |
| CCNC(=S)OC[C@H]1O[C@@H](n2cnc3c(N[C@@H]4CCOC4)ncnc32)[C@H](O)[C@@H]1O [Compound 46 of Example 2] | 77 % of CPA |
| CCCNC(=S)OC[C@H]1O[C@@H](n2cnc3c(N[C@@H]4CCOC4)ncnc32)[C@H](O)[C@@H]1O [Compound 49 of Example 2] | 89 % of CPA |
| CCCNC(=S)OC[C@H]1O[C@@H](n2cnc3c(N[C@@H]4CCOC4)nc(Cl)nc32)[C@H](O)[C@@H]1O [Compound 83 of Example 2] | 77 % of CPA |
| O[C@@H]1[C@H](O)[C@@H](CSc2cccc(F)c2)O[C@H]1n1cnc2c(N[C@@H]3CCOC3)ncnc21 [Compound 20 of Example 4] | 84.2 % of CPA |
| CNC(=S)OC[C@H]1O[C@@H](n2cnc3c(N[C@@H]4CCOC4)ncnc32)[C@H](O)[C@@H]1O [Compound 45 of Example 2] | 77 % of CPA |

Asked: Could you please provide reported GTPγS (% of CPA) for OC[C@H]1O[C@@H](n2cnc3c(NC4CCCC4)ncnc32)[C@H](O)[C@@H]1O [CPA, N^6-cyclopentyladenosine, reference compound] ? Thanks!
Given back: 100 % of CPA

Asked: Could you please provide reported GTPγS (% of CPA) for O[C@@H]1[C@H](O)[C@@H](CSc2ccccc2F)O[C@H]1n1cnc2c(N[C@@H]3CCOC3)ncnc21 [Compound 21 of Example 4] ? Thanks!
Given back: 72 % of CPA

---

System: Adenosine A1 receptor
assay.summary: A1-agonist stimulated [35S]GTPγS binding to G proteins
Type: biochemical
measurement.parameters: Table 1, compounds of Example 2; normalized to the full agonist CPA
property.measured: GTPγS (%)
Number only, in %; omit the unit.

Please review the following examples before continuing.
| compound | property.measured | endpoint.result |
| --- | --- | --- |
| O=C(N[C@H]1CCC[C@@H]1OCc1ccccc1)OC[C@H]1O[C@@H](n2cnc3c(N[C@@H]4CCOC4)ncnc32)[C@H](O)[C@@H]1O | GTPγS | 1 |
| O=C(NC1CCCC1C(=O)O)OC[C@H]1O[C@@H](n2cnc3c(N[C@@H]4CCOC4)ncnc32)[C@H](O)[C@@H]1O (stereo partly drawn) | GTPγS | 81 |
| CNC(=S)SC[C@H]1O[C@@H](n2cnc3c(N[C@@H]4CCOC4)ncnc32)[C@H](O)[C@@H]1O | GTPγS | 95 |
| OC[C@H]1O[C@@H](n2cnc3c(NC4CCCC4)ncnc32)[C@H](O)[C@@H]1O [CPA, N^6-cyclopentyladenosine, reference compound] | GTPγS | 100 |
| COC(=O)CNC(=O)OC[C@H]1O[C@@H](n2cnc3c(N[C@@H]4CCOC4)ncnc32)[C@H](O)[C@@H]1O | GTPγS | 53 |

In the following, a different compound is considered.
Asked: Could you please provide reported GTPγS for "O=C(N[C@@H]1CCC[C@H]1OCc1ccccc1)OC[C@H]1O[C@@H](n2cnc3c(N[C@@H]4CCOC4)ncnc32)[C@H](O)[C@@H]1O" ? Thanks!
Given back: 30

---

study.target: A1-AdoR (Cavia porcellus, UniProt P47745)
assay.summary: 3H-CPX binding to guinea pig forebrain membranes
measurement.parameters: IC50 to reduce the binding of 3H-CPX, presence of 1 mM GTP
property.measured: pIC50
Remember, pIC50 is on a log scale: it is -log10 of the molar concentration.

| compound | endpoint.result |
| --- | --- |
| CNC(=O)OC[C@H]1OC(n2cnc3c(N[C@@H]4CCOC4)ncnc32)[C@H](O)[C@@H]1O (some centres unmarked) [Compound 6 of Example 2] | 5.54 |

In the following, a different compound is considered.
Asked: Could you please provide reported pIC50 for OC[C@H]1O[C@@H](n2cnc3c(NC4CCCC4)ncnc32)[C@H](O)[C@@H]1O [CPA, N^6-cyclopentyladenosine, reference compound] ? Thanks!
Given back: 7.55

---

Test system: Adenosine A1 receptor
assay.summary: A1-agonist stimulated [35S]GTPγS binding to G proteins
Assay type: biochemical
measurement.parameters: Table 3, compounds of Example 4; normalized to the full agonist CPA
property.measured: GTPγS (%)
Number only, in %; omit the unit.

| compound | unit.symbol | GTPγS |
| --- | --- | --- |
| COc1ccccc1SC[C@H]1O[C@@H](n2cnc3c(N[C@@H]4CCOC4)ncnc32)[C@H](O)[C@@H]1O | % | 52 |
| O[C@@H]1[C@H](O)[C@@H](CSc2ccc(C(F)(F)F)cc2)O[C@H]1n1cnc2c(N[C@@H]3CCOC3)ncnc21 | % | 31 |
| Cc1ccc(SC[C@H]2O[C@@H](n3cnc4c(N[C@@H]5CCOC5)ncnc43)[C@H](O)[C@@H]2O)cc1 | % | 48 |

In the following, a different compound is considered.
Asked: Could you please provide reported GTPγS for OC[C@H]1O[C@@H](n2cnc3c(NC4CCCC4)ncnc32)[C@H](O)[C@@H]1O [CPA, N^6-cyclopentyladenosine, reference compound] ? Thanks!
Given back: 100

---

study.target: A1-AdoR (Rattus norvegicus)
Sequence (P25099 1-326): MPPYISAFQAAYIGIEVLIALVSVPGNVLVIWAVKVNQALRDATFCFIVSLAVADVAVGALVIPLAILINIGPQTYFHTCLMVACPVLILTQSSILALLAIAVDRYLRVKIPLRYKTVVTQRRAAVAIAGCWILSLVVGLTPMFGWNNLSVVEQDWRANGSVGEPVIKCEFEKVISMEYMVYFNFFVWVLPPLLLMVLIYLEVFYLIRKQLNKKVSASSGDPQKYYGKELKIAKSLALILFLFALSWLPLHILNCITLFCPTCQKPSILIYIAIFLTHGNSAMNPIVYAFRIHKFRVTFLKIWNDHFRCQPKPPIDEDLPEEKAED
assay.summary: 3H-CPX binding to rat adipocyte membranes
measurement.parameters: Ki for reduction of 3H-CPX binding, presence of 1 mM GTP
property.measured: pKi
Remember, pKi is on a log scale: it is -log10 of the molar concentration.

Asked: Could you please provide reported pKi for CNC(=O)OC[C@H]1OC(n2cnc3c(N[C@@H]4CCOC4)ncnc32)[C@H](O)[C@@H]1O (stereo partly shown) ? Thanks!
Given back: 5.48

---

study.target: Adenosine A1 receptor (Cavia porcellus, UniProt P47745)
Construct: from tissue; host or cells: guinea pig forebrain membranes
Sequence (P47745 1-326): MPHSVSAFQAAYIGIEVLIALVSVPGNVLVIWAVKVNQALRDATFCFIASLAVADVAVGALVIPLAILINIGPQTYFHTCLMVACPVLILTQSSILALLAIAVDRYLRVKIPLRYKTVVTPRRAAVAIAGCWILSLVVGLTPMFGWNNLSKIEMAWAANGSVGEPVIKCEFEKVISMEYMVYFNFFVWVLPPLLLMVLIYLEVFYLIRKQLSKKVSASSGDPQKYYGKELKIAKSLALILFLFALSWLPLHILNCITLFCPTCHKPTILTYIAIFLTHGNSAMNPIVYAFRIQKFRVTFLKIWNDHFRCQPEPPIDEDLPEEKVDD
assay.summary: Affinity binding (Ki) of Tables 4 and 5
measurement.parameters: Table 5; read-out: Ki
property.measured: Ki (nM)
Number only, in nM; omit the unit.

Asked: Could you please provide reported Ki for CCCNC(=S)OC[C@H]1O[C@@H](n2cnc3c(N[C@@H]4CCOC4)nc(Cl)nc32)[C@H](O)[C@@H]1O [Compound 83 of Example 2] ? Thanks!
Given back: 443

Asked: Could you please provide reported Ki for CCNC(=S)OC[C@H]1O[C@@H](n2cnc3c(N[C@@H]4CCOC4)ncnc32)[C@H](O)[C@@H]1O [Compound 46 of Example 2] ? Thanks!
Given back: 1110

---

study.target: A1-AdoR (Rattus norvegicus, UniProt P25099)
assay.summary: 3H-CPX binding to rat adipocyte membranes
measurement.parameters: IC50 to reduce the binding of 3H-CPX, presence of 1 mM GTP and 0.1 mM N-ethylmaleimide
property.measured: pIC50
Remember, pIC50 is on a log scale: it is -log10 of the molar concentration.

Asked: Could you please provide reported pIC50 for CNC(=O)OC[C@H]1OC(n2cnc3c(N[C@@H]4CCOC4)ncnc32)[C@H](O)[C@@H]1O (stereo partly shown) ? Thanks!
Given back: 4.82
